# TEST PROTOCOL: NCI Yeast Anticancer Drug Screen. Data for the mec2-1 strain (AID 157)
# TEST CONDITIONS: S. cerevisiae mec2-1 strain, at 50.0 µM, active compounds read high
The panel holds about 79,000 compounds, 15% with a hit somewhere; the sample as a whole holds those more often.
MEASURED ATTRIBUTE: growth inhibition (%)
One number for each entry, in %.

Field: example entries. Status: answers known.
>>> measured_value("O=C(OCCN1CCOCC1)c1cc2ccccc2oc1=O")
2.65
>>> measured_value("Cn1c2c(F)cccc2c(=O)c2c(O)cc3c(c21)C=CC(C)(C)O3")
-22.2
>>> measured_value("O=C(CCCCCCCCC(=O)c1ccc2ccccc2c1O)c1ccc2ccccc2c1O")
-22.1

# batch: return growth inhibition for each of the 6 compounds below
1. COC(=O)c1cc(C(=O)OC)c(CC(=O)C(=O)Nc2ccc(Cl)c(C(F)(F)F)c2)nc1CC(=O)C(=O)Nc1ccc(Cl)c(C(F)(F)F)c1
2. C(=C\c1nc2ncccn2n1)/c1ccccc1
3. CCc1cccc(C(C)C)c1NC(=O)/C(=N\NC(N)=O)C(C(=O)OC)c1cnc2ccccc2n1 (stereo not given)
4. O=c1[nH]c2ccccc2c(=O)n2cccc12
5. CCOC(=O)CN1C(=O)C(=O)N(c2ccc(OC)c3ccccc23)C1=O
6. CCCCCCCCCCCCCCCC(=O)O (tested in a mixture with another compound)

[-30.2, -2.75, 29.8, 23.6, -17.2, -1.5]

Entry O=C1NC2c3ccccc3CCC12 (stereo not given) : reported growth inhibition = ?
-5.45

----------
Hi there, I'd appreciate the recorded growth inhibition for every entry that follows.
# TEST PROTOCOL: NCI Yeast Anticancer Drug Screen. Data for the sgs1 mgt1 strain (AID 161);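 also: 0% = growth of cultures given vehicle only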
# TEST CONDITIONS: S. cerevisiae sgs1 mgt1 strain, at 50.0 µM, active compounds read high
# Experimental: Growth inhibition of yeast strains with defined genetic alterations is measured as a screen for potential anti-cancer activity. Selected strains with alterations in DNA damage repair or cell cycle control were exposed to compounds and growth inhibition was measured relative to vehicle treated controls. The strain used in this assay is sgs1 mgt1
Compounds without any hit were thinned out: in the full panel of roughly 79,000, 15% have a hit. Where a SMILES comes first, the peptide text is derived from it. The star is where a group is joined. Cbz = O=C(OCc1ccccc1)*
One number for each entry, in %.

Field: example entries. Status: answers known.
>>> measured_value("CSc1ncnc2nn(C3OC(CO)C(O)C3O)cc12 (stereo not given)")
6.25
>>> measured_value("Cc1cc(C)c(C(C=O)c2ccccc2)c(C)c1 (stereo not given)")
10.3
>>> measured_value("CCCCc1ccc(Nc2nc(SC)c3[nH]cnc3n2)cc1")
28.9
>>> measured_value("O=C(NC(Cc1ccccc1)C(=O)N1CCCC1C(=O)O)OCc1ccccc1 (stereo not drawn) (Cbz-Phe-Pro-OH; configuration not given here)")
-7.05
>>> measured_value("CC12CCCCC1CC(=O)/C(=C\\O)C2 (stereo not given)")
17.9

# batch: return growth inhibition for each of the 7 molecules below
1. CCCCCCC(=O)NC(O)C(Cl)(Cl)C(C)Cl (stereo not given)
2. O=C(O)C1=C(C(=O)O)C2CCC1C2
3. CCc1ccccc1NC(=O)N1CCOCC1
4. CC1C(O)CC2(C(C)C)CC12 (stereo not given)
5. Cc1nc2c(c(-c3ccc(Cl)cc3)n1)Cc1c(ccc3ccccc13)O2
6. COc1cc2cccc(N=Cc3ccccc3Cl)c2cc1OC
7. c1ccc2c(c1)CNNC2

[-6.2, -23.2, -1.55, -8.7, -9.2, -11.3, -5.55]
